Every entry's value here was drawn from paper PMC9090415.

Here, each record is paired with measured % inhibition Apo pol 10' data.
system-under-test: P. falciparum apicoplast DNA polymerase (Pf-apPOL) (Plasmodium falciparum)
method-description: Fluorescence-based high-throughput DNA polymerase assay (molecular beacon), primary screen and dose-response
Assay type: biochemical
study-conditions: DRC-1; concentration 5; 10'
// return the numeric value with its unit appended

Here's what some known entries look like.
| molecule-smiles | system-under-test | % inhibition Apo pol 10' |
| --- | --- | --- |
| Cc1ccnc(NS(=O)(=O)c2ccc(-n3cccc3)cc2)n1 | P. falciparum apicoplast DNA polymerase (Pf-apPOL) (Plasmodium falciparum) | 25.8281% |
| COc1cc(/C=C2\C(=O)N(c3ccc(C(=O)O)cc3)N=C2C(F)(F)F)ccc1OCC(C)C | P. falciparum apicoplast DNA polymerase (Pf-apPOL) (Plasmodium falciparum) | 10.3149% |
| O=C(Cc1cccs1)N1CCN(c2nc(CN3CCOCC3)cs2)CC1 | P. falciparum apicoplast DNA polymerase (Pf-apPOL) (Plasmodium falciparum) | 14% |
| COc1ccc(NC(=O)Cn2nc3c(cc2=O)CCC3)cc1Cl | P. falciparum apicoplast DNA polymerase (Pf-apPOL) (Plasmodium falciparum) | 44% |
| Cc1ccc(C2=N/C(=C\c3ccc(I)o3)C(=O)O2)cc1[N+](=O)[O-] | P. falciparum apicoplast DNA polymerase (Pf-apPOL) (Plasmodium falciparum) | 16.0721% |

Req: What value of % inhibition Apo pol 10' has been recorded for this entry: `CCCN1COc2ccc3c(=O)c(-c4ccccc4)coc3c2C1`
Resp: 0.6816%

Req: What value of % inhibition Apo pol 10' has been recorded for this entry: `O=C(O)c1nc(-c2ccccc2)nc2c1OCO2`
Resp: 18.6858%

----------
system-under-test: bacteriophage T4 DNA polymerase (Enterobacteria phage T4, UniProt P04415)
Construct: made in house
Sequence (P04415 1-898): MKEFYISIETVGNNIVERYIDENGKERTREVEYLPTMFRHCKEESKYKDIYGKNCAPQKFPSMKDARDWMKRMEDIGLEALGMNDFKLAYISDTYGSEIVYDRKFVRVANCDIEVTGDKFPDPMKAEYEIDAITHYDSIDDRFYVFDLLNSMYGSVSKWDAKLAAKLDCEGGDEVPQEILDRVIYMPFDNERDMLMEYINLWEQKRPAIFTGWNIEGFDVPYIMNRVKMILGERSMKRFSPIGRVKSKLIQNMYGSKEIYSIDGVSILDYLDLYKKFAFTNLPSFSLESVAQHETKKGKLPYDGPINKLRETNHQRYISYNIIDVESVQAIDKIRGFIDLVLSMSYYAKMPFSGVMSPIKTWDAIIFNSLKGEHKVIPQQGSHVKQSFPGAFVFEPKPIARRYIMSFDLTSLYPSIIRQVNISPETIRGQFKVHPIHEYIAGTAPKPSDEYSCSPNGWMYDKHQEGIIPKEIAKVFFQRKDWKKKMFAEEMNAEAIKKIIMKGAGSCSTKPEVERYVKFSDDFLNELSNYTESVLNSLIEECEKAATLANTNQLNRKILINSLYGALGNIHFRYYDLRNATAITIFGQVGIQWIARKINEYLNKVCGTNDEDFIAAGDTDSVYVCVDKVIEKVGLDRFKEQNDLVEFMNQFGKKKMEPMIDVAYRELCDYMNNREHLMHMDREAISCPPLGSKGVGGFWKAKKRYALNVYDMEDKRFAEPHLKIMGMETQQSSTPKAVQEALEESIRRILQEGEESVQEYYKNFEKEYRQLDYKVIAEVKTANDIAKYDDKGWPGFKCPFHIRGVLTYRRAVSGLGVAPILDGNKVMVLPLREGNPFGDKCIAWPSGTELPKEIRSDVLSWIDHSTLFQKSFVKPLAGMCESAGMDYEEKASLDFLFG
method-description: Counter-screen against bacteriophage T4 DNA polymerase
Assay type: biochemical
study-conditions: DRC-2; read at 90'; concentration 40
observable: % inhibition T4 90' 40 (%)
Numbers only here, please. The scale is %.

Here's what some known entries look like.
| molecule | % inhibition T4 90' 40 / % |
| --- | --- |
| Nc1cc(Oc2ccc(O)c(N)c2)ccc1O | -4.46 |
| CC(=O)Nc1cc(C(=O)c2cccs2)nn(-c2ccc(Cl)cc2)c1=O | 2.26 |
| CCCc1ccc(Oc2coc3cc(OC)ccc3c2=O)cc1 | 0.714 |

Req: What value of % inhibition T4 90' 40 has been recorded for this entry: `Cc1ccsc1Cn1c(C)ccc1C`
Resp: 12

----------
system-under-test: P. falciparum apicoplast DNA polymerase (Pf-apPOL) (Plasmodium falciparum, UniProt Q8ILY1)
Sequence (Q8ILY1 entry or part of it): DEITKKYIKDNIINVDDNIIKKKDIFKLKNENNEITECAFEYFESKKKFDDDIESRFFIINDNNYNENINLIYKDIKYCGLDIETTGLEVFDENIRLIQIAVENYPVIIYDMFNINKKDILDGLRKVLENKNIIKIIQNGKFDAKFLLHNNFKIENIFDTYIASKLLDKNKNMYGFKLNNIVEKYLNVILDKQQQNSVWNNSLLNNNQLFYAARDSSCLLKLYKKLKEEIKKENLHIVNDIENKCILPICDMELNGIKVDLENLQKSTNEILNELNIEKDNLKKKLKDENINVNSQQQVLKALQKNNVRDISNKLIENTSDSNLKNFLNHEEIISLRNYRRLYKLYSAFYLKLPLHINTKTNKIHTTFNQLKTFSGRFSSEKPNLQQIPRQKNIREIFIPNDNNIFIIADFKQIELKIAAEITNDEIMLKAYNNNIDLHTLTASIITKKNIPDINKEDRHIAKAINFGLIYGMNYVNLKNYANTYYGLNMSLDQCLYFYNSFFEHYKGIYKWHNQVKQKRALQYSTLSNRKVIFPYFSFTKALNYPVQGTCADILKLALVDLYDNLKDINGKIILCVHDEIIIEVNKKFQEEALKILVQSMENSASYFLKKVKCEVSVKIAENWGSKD
method-description: Fluorescence-based high-throughput DNA polymerase assay (molecular beacon), primary screen and dose-response
Assay type: biochemical
study-conditions: supplemental file 2, sheet IC50 nontoxic compounds; Pf-apPOL
Field 'label' (enum: 1.0 / 0.0). Set to 1.0 when IC50 is strictly under 10 µM; else 0.0.

Solved entries:
| molecule | qualitative-label |
| --- | --- |
| CN1CC(=Cc2ccco2)C(=O)C(=Cc2ccco2)C1 [Molecule 65] | 1.0 |
| Cc1cc(C)c2c(c1)C1C=CCC1C(c1ccc(C(=O)O)cc1)N2 (stereo not drawn) [Molecule 102] | 1.0 |
| Cc1cc(C)nc(Nc2nc(CC(=O)Nc3nc(-c4ccco4)cs3)cs2)n1 [Molecule 92] | 1.0 |

Req: # check: IC50 < 10 µM for O=C(Cc1cc(=O)[nH]c(SCc2ccccc2)n1)Nc1ccc2c(c1)OCO2 [Molecule 46]
Resp: 0.0

Req: # check: IC50 < 10 µM for O=C(O)c1nc(-c2ccccc2)nc2c1OCO2 [Molecule 45]
Resp: 0.0

Req: # check: IC50 < 10 µM for CC(NC(=O)Cc1cc(=O)[nH]c(SCc2cccc(Cl)c2)n1)c1ccccc1 (stereo not drawn) [Molecule 67]
Resp: 0.0

Req: # check: IC50 < 10 µM for O=C(Cc1cccs1)N1CCN(c2nc(CN3CCOCC3)cs2)CC1 [Molecule 35]
Resp: 0.0

Req: # check: IC50 < 10 µM for O=C(c1c[nH]c2ncccc12)N1CCCC1 [Molecule 63]
Resp: 0.0

Req: # check: IC50 < 10 µM for COc1ccc(C2CC(c3ccc(Cl)cc3Cl)Nc3nc(N)nn32)cc1OC (stereo not drawn) [Molecule 43]
Resp: 0.0

----------
system-under-test: bacteriophage T4 DNA polymerase (Enterobacteria phage T4)
Construct: made in house
Sequence (P04415 1-898): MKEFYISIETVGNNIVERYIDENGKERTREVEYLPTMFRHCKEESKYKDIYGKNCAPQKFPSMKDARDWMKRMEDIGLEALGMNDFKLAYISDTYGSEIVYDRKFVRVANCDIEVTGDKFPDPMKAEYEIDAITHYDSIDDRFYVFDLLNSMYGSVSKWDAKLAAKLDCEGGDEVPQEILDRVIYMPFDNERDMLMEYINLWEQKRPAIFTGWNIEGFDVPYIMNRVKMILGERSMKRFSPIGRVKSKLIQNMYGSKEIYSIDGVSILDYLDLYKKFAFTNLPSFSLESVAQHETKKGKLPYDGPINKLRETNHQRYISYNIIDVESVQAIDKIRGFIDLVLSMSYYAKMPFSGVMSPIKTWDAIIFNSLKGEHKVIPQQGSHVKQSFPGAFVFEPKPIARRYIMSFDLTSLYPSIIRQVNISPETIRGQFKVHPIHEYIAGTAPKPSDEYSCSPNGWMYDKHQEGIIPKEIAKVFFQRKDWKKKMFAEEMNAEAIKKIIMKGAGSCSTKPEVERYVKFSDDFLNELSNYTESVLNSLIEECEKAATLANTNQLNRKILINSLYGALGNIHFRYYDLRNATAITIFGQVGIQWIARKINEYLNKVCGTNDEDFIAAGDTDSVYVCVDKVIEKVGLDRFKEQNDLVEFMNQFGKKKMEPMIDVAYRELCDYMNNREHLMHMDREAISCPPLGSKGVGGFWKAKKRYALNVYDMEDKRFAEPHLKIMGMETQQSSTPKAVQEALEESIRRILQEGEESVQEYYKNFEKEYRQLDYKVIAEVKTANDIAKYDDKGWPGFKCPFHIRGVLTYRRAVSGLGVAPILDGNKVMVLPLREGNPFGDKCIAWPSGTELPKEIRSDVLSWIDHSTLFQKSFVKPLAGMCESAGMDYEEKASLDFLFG
method-description: Counter-screen against bacteriophage T4 DNA polymerase
Assay type: biochemical
study-conditions: DRC-2; 40'; concentration 5
observable: % inhibition T4 40' (%)
Numbers only here, please. The scale is %.

Here's what some known entries look like.
| compound | observable | assay-value |
| --- | --- | --- |
| COc1ccc(-c2cc3nc4c(c(=O)n3[nH]2)CCN(C(=O)CCc2ccccc2)C4)cc1 [Molecule 17] | % inhibition T4 40' | -38 |
| O=C1C(=Cc2ccccc2O)Oc2ccc(O)cc21 [KU0196475] | % inhibition T4 40' | 10 |
| CN(C)S(=O)(=O)Oc1ccc(-c2noc(-c3ccc(Oc4cc(Cl)cc(Cl)c4)o3)n2)cc1 [KU0263859] | % inhibition T4 40' | 17 |

Req: What value of % inhibition T4 40' has been recorded for this entry: Cc1ccc(-n2nnc(C(=O)O)c2-c2ccccn2)c(F)c1 [Molecule 54, Cc1ccc(c(c1)F)n1nnc(c1c1ccccn1)C(=O)O]
Resp: 23

Req: What value of % inhibition T4 40' has been recorded for this entry: CCCCC(=O)N1CCc2c(nc3cc(-c4ccccc4Cl)[nH]n3c2=O)C1 [Molecule 37]
Resp: -3

Req: What value of % inhibition T4 40' has been recorded for this entry: CC(=O)c1cc2c(N)c(/C(N)=N/C#N)sc2nc1C [KU0015866]
Resp: -17

Req: What value of % inhibition T4 40' has been recorded for this entry: N#CC(=NNc1cc(C(F)(F)F)cc(C(F)(F)F)c1)C(=O)c1ccco1 [KU0264276]
Resp: 9

Req: What value of % inhibition T4 40' has been recorded for this entry: CC(C)(C)OC(=O)COc1ccc2cc(-c3ccccc3)c(=O)oc2c1 [Molecule 81]
Resp: 13

Req: What value of % inhibition T4 40' has been recorded for this entry: O=C(NNC(=O)c1ccc(Cl)cc1)C(=O)NNC(=O)c1ccc(Cl)cc1 [Molecule 25]
Resp: -13
